PROPERTY NAME: melting point

State the recorded melting point for this entry: COc1ccc2nccc(Nc3cccc(S(N)(=O)=O)c3)c2c1 [11b]
244 to 246 °C

State the recorded melting point for this entry: COc1ccc2nccc(NNC(=O)c3ccc(S(N)(=O)=O)cc3)c2c1
228 to 230 °C

State the recorded melting point for this entry: NS(=O)(=O)c1cccc(Nc2ccnc3cc(C(F)(F)F)cc(C(F)(F)F)c23)c1 [11d]
172 to 174 °C

State the recorded melting point for this entry: Cc1ccc2nccc(Nc3cccc(S(N)(=O)=O)c3)c2c1 [11a]
272 to 274 °C

State the recorded melting point for this entry: COc1ccc2nccc(Nc3ccc(C)c(S(N)(=O)=O)c3)c2c1 [11f]
248 to 250 °C

State the recorded melting point for this entry: Cc1ccc(Nc2ccnc3ccc(Cl)cc23)cc1S(N)(=O)=O [11g]
282 to 285 °C

State the recorded melting point for this entry: COc1ccc2nccc(Nc3ccc(S(N)(=O)=O)cc3)c2c1 [13b]
250 to 252 °C

State the recorded melting point for this entry: NS(=O)(=O)c1ccc(Nc2ccnc3ccc(Cl)cc23)cc1 [13c]
284 to 286 °C

State the recorded melting point for this entry: Cc1ccc2nccc(Nc3ccc(C)c(S(N)(=O)=O)c3)c2c1 [11e]
280 to 282 °C

State the recorded melting point for this entry: NS(=O)(=O)c1ccccc1Nc1ccnc2ccc(Cl)cc12
258 to 260 °C

State the recorded melting point for this entry: Cc1ccc2nccc(Nc3ccccc3S(N)(=O)=O)c2c1
264 to 265 °C

State the recorded melting point for this entry: Cc1ccc2nccc(Nc3ccc(S(N)(=O)=O)cc3)c2c1 [13a]
270 to 272 °C

State the recorded melting point for this entry: COc1ccc2nccc(Nc3ccccc3S(N)(=O)=O)c2c1
275 to 277 °C
